- Tested on: primary rat microglia
- Cond: rat
Where a name gives a salt, the structure may show the parent alone.
Measured Property: LPS % cell toxicity (%)

>>> val("COc1ccc(C(=O)c2ccccc2O)c(O)c1 [Dioxybenzone]")
0
>>> val("NC(CO)C(=O)NNCc1ccc(O)c(O)c1O (centres unmarked) [Benserazide]")
0
>>> val("Nc1ccc(S(=O)(=O)c2ccc(N)cc2)cc1 [Dapsone]")
0
>>> val("CC(=O)NC(CCC(N)=O)C(=O)O (centres unmarked) [Aceglutamide]")
0
>>> val("O=C(O)C(O)C(O)C(=O)O.OCc1cccnc1 (centres unmarked) [Nicotinyl Alcohol Tartrate]")
0
>>> val("CO/N=C(\\C(=O)N[C@@H]1C(=O)N2C(C(=O)O)=C(CSc3nc(=O)c(=O)[nH]n3C)CS[C@H]12)c1csc(N)n1 [Ceftriaxone]")
0
>>> val("CC(C)(C(=O)c1cccnc1)c1cccnc1 [Metyrapone]")
0
>>> val("CNCCCC12CCC(c3ccccc31)c1ccccc12 [Maprotiline hydrochloride, reference compound]")
1
>>> val("CNCCCC12CCC(c3ccccc31)c1ccccc12 [Maprotiline]")
2
>>> val("CN1C(C(=O)Nc2ccccn2)=C(O)c2ccccc2S1(=O)=O [Piroxicam]")
0
>>> val("Nc1ncnc2c1ncn2[C@@H]1O[C@H](COP(=O)(O)O)[C@@H](O)[C@H]1O [Adenosine Phosphate]")
2

###

- System: primary rat microglia
- Assay Name: Cell toxicity (dead cells, size <150 μm2) in coated fibrin (cFib) assay;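 further: share of dead cells sized under 150 µm2 at 10 µM in fibrin-stimulated microglia HTS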
- Cond: primary microglia HTS, fibrin stimulation, cell size <150 μm2 as marker of toxicity
# key: entry, value: Fibrin % cell toxicity
Measured Property: Fibrin % cell toxicity (%)

>>> val("C#CCN(C)Cc1ccccc1")
1
>>> val("COc1ccc2nc3cc(Cl)ccc3c(Nc3cc(CN4CCCC4)c(O)c(CN4CCCC4)c3)c2n1.O=P(O)(O)O.O=P(O)(O)O.O=P(O)(O)O.O=P(O)(O)O [Pyronaridine Tetraphosphate]")
1
>>> val("Cn1c([N+](=O)[O-])cnc1COC(N)=O")
1
>>> val("Cc1ccc(N(CC2=NCCN2)c2cccc(O)c2)cc1")
0
>>> val("CNC(=C[N+](=O)[O-])NCCSCc1ccc(CN(C)C)o1")
1
>>> val("CC(C)NCC(O)COc1cccc2[nH]ccc12 (stereo not drawn)")
1
>>> val("C[C@@](Cc1ccc(O)c(O)c1)(NN)C(=O)O [S-(−)-carbidopa, Carbidopa]")
0
>>> val("CC(=O)N[C@@H](CC(=O)N[C@@H](CCC(=O)O)C(=O)O)C(=O)O")
1
>>> val("CCCC(C(=O)OCCN(CC)CC)(c1ccccc1)c1ccccc1.Cl")
0
>>> val("C[C@H](CCC(=O)[O-])[C@H]1CC[C@H]2[C@@H]3C(=O)C[C@@H]4CC(=O)CC[C@]4(C)[C@H]3CC(=O)[C@]12C.[Na+]")
1
>>> val("N[C@@H](COP(=O)(O)O)C(=O)O")
1
>>> val("CCc1nc(N)nc(N)c1-c1ccc(Cl)cc1")
1
>>> val("CN(C)CCc1c[nH]c2ccc(Cn3cncn3)cc12")
1
>>> val("CC1=C(C)C(=O)C(C(CCCCCC(=O)O)c2ccccc2)=C(C)C1=O (stereo not drawn)")
1
>>> val("Cc1nc2ccccn2c(=O)c1CCN1CCC(C(=O)c2ccc(F)cc2)CC1")
1
